- Experimental target: Short transient receptor potential channel 4 (Mus musculus) (UniProt Q9QUQ5)
- Sequence (Q9QUQ5 whole entry, looked up): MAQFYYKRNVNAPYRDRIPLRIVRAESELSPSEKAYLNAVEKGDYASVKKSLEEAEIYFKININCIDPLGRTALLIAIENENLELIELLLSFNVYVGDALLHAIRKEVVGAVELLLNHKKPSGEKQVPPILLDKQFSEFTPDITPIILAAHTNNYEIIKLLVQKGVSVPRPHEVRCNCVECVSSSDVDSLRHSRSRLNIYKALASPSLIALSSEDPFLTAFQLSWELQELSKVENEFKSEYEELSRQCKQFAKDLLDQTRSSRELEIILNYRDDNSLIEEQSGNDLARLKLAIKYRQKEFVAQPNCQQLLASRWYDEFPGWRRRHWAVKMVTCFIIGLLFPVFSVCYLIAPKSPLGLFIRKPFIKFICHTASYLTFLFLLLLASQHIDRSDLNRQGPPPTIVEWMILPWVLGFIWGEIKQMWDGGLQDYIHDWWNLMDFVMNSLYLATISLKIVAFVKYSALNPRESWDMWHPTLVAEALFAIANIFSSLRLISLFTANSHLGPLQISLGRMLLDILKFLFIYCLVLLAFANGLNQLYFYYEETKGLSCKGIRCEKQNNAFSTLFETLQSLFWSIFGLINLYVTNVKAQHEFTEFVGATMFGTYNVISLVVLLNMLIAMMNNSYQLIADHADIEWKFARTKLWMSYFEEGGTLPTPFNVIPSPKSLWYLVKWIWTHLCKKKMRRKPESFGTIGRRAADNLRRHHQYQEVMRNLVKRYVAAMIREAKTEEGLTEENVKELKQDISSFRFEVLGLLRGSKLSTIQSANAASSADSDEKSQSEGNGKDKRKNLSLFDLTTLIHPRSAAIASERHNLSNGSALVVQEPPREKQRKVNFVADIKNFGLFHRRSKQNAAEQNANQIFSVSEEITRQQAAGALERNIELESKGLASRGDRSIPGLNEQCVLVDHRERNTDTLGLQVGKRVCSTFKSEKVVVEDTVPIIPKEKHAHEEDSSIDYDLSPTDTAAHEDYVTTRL
- Test method notes: block of DAMGO-driven TRPC4 calcium entry – cell-based, HEK293 TRPC4/mu-opioid, Fluo-4 calcium, dose response (AID 434942)
- Measurement context: HEK293 TRPC4/mu-opioid cells, DAMGO-evoked Fluo-4 calcium ratio; series mostly up to 20 µM
Entries with a potency or affinity are not part of this list. Activity calls are given as the source filed them.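 Rule for the calls: active = primary screen inhibitor hit that blocks the TRPC4 channel at some tested dose, yielding a dose curve; inactive = the rest.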
Assay readout: outcome

Consider the worked cases shown below.
Molecule	outcome
COCC1CCN(Cc2cn(-c3ccccc3F)nc2-c2cc(C)sc2C)CC1	inactive
CC(C)(C)[C@H]1C=C(C(=O)NCc2ccccc2)O[C@@H](OCc2ccc(CO)cc2)C1	inactive
CCN(CC)CCNc1ccc(Cl)cc1[N+](=O)[O-]	inactive
C/C(CC(=O)NCc1ccc(Cl)cc1)=N\NC(=O)COc1ccc(C)cc1Br	inactive
COC(=O)[C@@]12CCCN1[C@H](c1ccc(-c3ccc(OC)cc3)cc1)[C@@H]1C(=O)N(C)C(=O)[C@@H]12	inactive

The reported outcome of the molecule `Cc1ccc(C(=O)O)cc1N=Cc1cc(Br)cc(Br)c1O` was inactive

Notebook: `CCOC(=O)c1ccc(N=C2C(=S)N(c3ccc(C(=O)OCC)cc3)C(=N)N2/N=C/c2ccccc2)cc1` , outcome read as inactive

Entry under test: O=C(NC1CCCN(Cc2ccc(Cl)cc2)C1)C1CCC1 (stereo not drawn) . Its outcome was inactive

Query `NC(N)=NN=C1CCCCCCCCCCC1` yields outcome of inactive

// sample `CN1CCN(c2ccc(NC(=O)COc3cccc4ccccc34)cc2)CC1` , its outcome was inactive

Lab note: measured outcome of `CC(C)Oc1cccc(C(=O)NC(=S)Nc2ccc(N3CCN(C)CC3)cc2)c1` was inactive

Quick note, outcome for CCCn1c(=O)c(C(=O)NCC2CCCO2)c(O)c2ccccc21 (stereo not drawn) landed at inactive

Noted for `CN(C)CCCNc1c2c(nc3cc(-c4cccc(F)c4)nn13)CCC2` : its outcome reads inactive

For Cc1ccc(NC(=O)C2CCC(CNC(=O)[C@@H]3Cc4ccccc4CN3)CC2)cc1 (stereo partly drawn) the molecule record lists outcome as inactive

Briefly, outcome measured for `CCCCCCCCCCOC(=O)Cn1c(COc2ccccc2)[n+](C)c2ccccc21` : inactive

GET /value?item= `Clc1ccc(OCCCc2nc(-c3ccncc3)no2)c(Cl)c1` &field=outcome returns inactive

Data point: `CCOC(=O)C1(Cc2cccc(F)c2)CCN(Cc2cnn(CC)c2)CC1` ; outcome = inactive

outcome measured on `O=C(O)c1ccc(-c2ccc(/C=N/Nc3ccc([N+](=O)[O-])cc3)o2)cc1` = inactive

// outcome lookup, molecule = `CCCc1c(O)nc(SCCN(CC)CC)[nH]c1=O` , result: inactive

molecule CC1CCc2c(C(=O)N3CCN(S(=O)(=O)c4cccs4)CC3)csc2C1 (stereo not drawn) , outcome observed: inactive

The molecule identified as `CCC(=O)c1cc2c(C)cc(=O)oc2c(C)c1OC(=O)C(C)C` registered its outcome at inactive

Note to self: outcome recorded for `CCn1c(N2CCN(C(=S)NCCc3ccccc3)CC2)nc2ccccc21` was inactive

outcome in this record for `Cc1csc2c(N3CCN(C(=S)Nc4ccc(C(F)(F)F)cc4)CC3)ncnc12` : inactive

---

- Experimental target: Short transient receptor potential channel 6 (Mus musculus)
- Test method notes: TRPC6 opening by TRPC4 activator hits – cell-based, HEK293, membrane potential dye, duplicate, selectivity assay for TRPC4 activator project, confirmation (AID 434950)
- Measurement context: HEK293 TRPC6, membrane potential fluorescence, at 10 µM; activation
The source made the active and inactive calls.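 The calls were made as follows: active = membrane potential signal rise above negative control mean plus 3 SD in both duplicates, also active in the earlier TRPC4 screen; inactive = the rest.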
Assay readout: outcome

// worked examples, outcome included
Molecular string	outcome
CN(C)CCCN(C(=O)c1ccc(Cl)s1)c1nc2cc3c(cc2s1)OCO3	inactive
COc1ccc2nc(NCc3ccccc3)[nH]c2c1	inactive
CSCC[C@H](NC(=O)N1CCn2c1nc1ccccc12)C(=O)NCc1ccc(F)cc1	inactive
O=C(NCCN1CCOCC1)c1ccc2c(c1)N(Cc1ccc(F)cc1)C(=O)CS2	inactive
CNCC(=O)N1CCN(c2ncc(C(F)(F)F)cc2Cl)CC1	inactive

Here is another compound to look at.
Record `CN(C)CCCCOc1cccc(Br)c1` , field outcome: inactive

Hello, the source for this data is PubChem BioAssay, in case you need it.
